Assignment: determine reported Log kw for the given compounds.
Test: Apparent lipophilicity (log kw) at pH 7.5
Type: physicochemical
Conditions: buffer
Give bare numbers.

Recorded results for 10 compounds are shown here.
                           chem_smiles  quantity  readout_value
0  Oc1cccc([C@H]2CCCN(CCc3ccccc3)C2)c1    Log kw           2.27
1      CC(C)N1CCC[C@@H](c2cccc(O)c2)C1    Log kw           0.84
2        CCCCN1CCC[C@H](c2cccc(O)c2)C1    Log kw           1.41
3              Oc1cccc([C@H]2CCCNC2)c1    Log kw           0.41
4         CCCN1CCC[C@H](c2cccc(O)c2)C1    Log kw           1.05
5           CN1CCC[C@H](c2cccc(O)c2)C1    Log kw           0.96
6       CCCCN1CCC[C@@H](c2cccc(O)c2)C1    Log kw           1.41
7             Oc1cccc([C@@H]2CCCNC2)c1    Log kw           0.41
8          CN1CCC[C@@H](c2cccc(O)c2)C1    Log kw           0.94
9       CC(C)N1CCC[C@H](c2cccc(O)c2)C1    Log kw           0.84

State recorded Log kw for all listed compounds.
1. CCN1CCC[C@@H](c2cccc(O)c2)C1
2. Oc1cccc([C@@H]2CCCN(CCc3ccccc3)C2)c1
3. CCCN1CCC[C@@H](c2cccc(O)c2)C1

Data returned:
1: 0.84; 2: 2.27; 3: 1.05

Data request: Annotate the compound `CCN1CCC[C@H](c2cccc(O)c2)C1` with its measured Log kw.
Data returned: 0.84
